Below, each entry is listed alongside its reported melting point.

# example entries with known answers
smiles.string: CCCCCN(CCC12CC3CC(CC(C3)C1)C2)C(=O)NCCCc1cc[n+](C)cc1.[I-]
observed.result: 168 to 171 °C

smiles.string: O=C(N(CCCc1ccncc1)Cc1ccccc1)N(CCCc1ccccc1)C1CCCCC1
observed.result: 107 to 112 °C

smiles.string: C=C(C)CN(CCC12CC3CC(CC(C3)C1)C2)C(=O)NCCCc1ccncc1
observed.result: 108 to 109 °C

smiles.string: CCN(CCC12CC3CC(CC(C3)C1)C2)C(=O)NCCCc1ccncc1
observed.result: 106 to 115 °C

smiles.string: CCCCCN(CCC12CC3CC(CC(C3)C1)C2)C(=O)NCCCc1cccnc1
observed.result: 99.9 to 105.2 °C

smiles.string: CCCCCN(CCC12CC3CC(CC(C3)C1)C2)C(=O)NC/C=C/c1ccncc1
observed.result: 90 to 118 °C

API: the following record is the query input.
// melting point value for `CCCCCN(CCC12CC3CC(CC(C3)C1)C2)C(=O)NCCCCc1ccncc1` : 74.1 to 78.1 °C

----------
Listed next: entries and their corresponding melting point.

smiles.string: CN(CCC12CC3CC(CC(C3)C1)C2)C(=O)NCCCc1ccncc1
melting point: 99 to 109 °C
--
smiles.string: COCCN(CCC12CC3CC(CC(C3)C1)C2)C(=O)NCCCc1ccncc1
melting point: 101.5 to 104.5 °C
--
smiles.string: O=C(NCCCc1ccncc1)N(CCC12CC3CC(CC(C3)C1)C2)Cc1ccco1
melting point: 128 to 130 °C
--
smiles.string: O=C(NCCCc1ccncc1)N(CCC12CC3CC(CC(C3)C1)C2)CC(F)(F)F
melting point: 106.2 to 107.3 °C
--
smiles.string: Cl.O=C1CCN(CCC2CCCCC2)C(=O)N1Cc1ccncc1
melting point: 64 to 74.5 °C

Please fill in: melting point reported for `CCCCCN(CCC12CC3CC(CC(C3)C1)C2)C(=O)NCC(C)(C)Cc1ccncc1` = 82.5 to 84.9 °C

Memo: `O=C(NCCCc1ccncc1)N(O)CCC12CC3CC(CC(C3)C1)C2` , reported melting point: 101 to 102.59 °C

melting point in this record for `CCCN(CC(=O)NC12CC3CC(CC(C3)C1)C2)C(=O)NCCCc1ccncc1` : 132 to 132.5 °C

----------
Reported values of melting point for individual entries

Recorded melting point, per entry:
molecule: CC=CCN(CCC12CC3CC(CC(C3)C1)C2)C(=O)NCCCc1ccncc1
melting point: 89.5 to 93.5 °C
--
molecule: O=C(NCCCc1ccncc1)N1CCc2ccccc2C1
melting point: 76 to 79 °C
--
molecule: O=C(NCCCc1ccncc1)N(CCCCC(F)(F)F)CCC12CC3CC(CC(C3)C1)C2
melting point: 116.9 to 118.9 °C
--
molecule: CCCCCN(CCC12CC3CC(CC(C3)C1)C2)C(=O)NCCCc1ccnc2ccccc12
melting point: 80.2 to 102 °C

The record that follows has no melting point shown yet.
What the record says about CC(CNC(=O)N(CCC(F)(F)F)CCC12CC3CC(CC(C3)C1)C2)Cc1ccncc1 (centres unmarked) : melting point is 81.1 to 84.1 °C

----------
parameter.measured: melting point

Known melting point results, listed for orientation:
compound: CCCCCCN(CCC12CC3CC(CC(C3)C1)C2)C(=O)NCCCc1ccncc1
melting point: 119.5 to 121.5 °C

compound: CCCN(CCCCC12CC3CC(CC(C3)C1)C2)C(=O)NCCCc1ccncc1
melting point: 110 to 110.5 °C

compound: CCN(CCCCC12CC3CC(CC(C3)C1)C2)C(=O)NCCCc1ccncc1
melting point: 92.7 to 93.7 °C

compound: O=C(NCCCc1ccncc1)N(CCC12CC3CC(CC(C3)C1)C2)CC1CCCC1
melting point: 155 to 158 °C

compound: CCCCCN(CCC12CC3CC(CC(C3)C1)C2)C(=O)NC[C@@H]1C[C@@H]1c1ccncc1 (relative stereo)
melting point: 128 to 130 °C

Looking up `CCCCCN(CCC12CC3CC(CC(C3)C1)C2)C(=O)NCc1ccncc1` , I found its melting point recorded as 96.5 to 108 °C

Reported melting point ( `CCNCCN(CCC12CC3CC(CC(C3)C1)C2)C(=O)NCCCc1ccncc1` ) = 96.8 to 104.9 °C

Per the records, this compound ( `Cl.Cl.NN(CCC12CC3CC(CC(C3)C1)C2)C(=O)NCCCc1ccncc1` ) has melting point equal to ~ 100 °C

response.value for `O=C(NCCCc1ccncc1)N(CCC12CC3CC(CC(C3)C1)C2)C1CCCC1` (field: melting point) = 135.5 to 137.5 °C

----------
Reported melting point by item:

Take a look at these entries with their results.
molecule: CCCCCN(CCC12CC3CC(CC(C3)C1)C2)C(=O)NCCC(C)c1ccncc1 (stereo not shown)
melting point: 93 to 98 °C
//
molecule: O=C(NCCCc1ccncc1)N(C1CCCCC1)C1CCCCC1
melting point: 143 to 145.5 °C
//
molecule: CCN(CCCC12CC3CC(CC(C3)C1)C2)C(=O)NCCCc1ccncc1
melting point: 97.5 to 98.2 °C

Lab note: `CCCCCN(CCC12CC3CC(CC(C3)C1)C2)C(=O)NCCc1ccccn1` gave melting point of 80 to 100 °C

----------
Entries and their melting point values follow.

Answered cases to consult:
compound: CCCCCN(CCC12CC3CC(CC(C3)C1)C2)C(=O)NCCc1ccc(O)cc1
parameter.measured: melting point
observed.result: 96.3 to 99.4 °C
//
compound: CCCCCN(CCC12CC3CC(CC(C3)C1)C2)C(=O)NCC(CC)Cc1ccncc1 (centres unmarked)
parameter.measured: melting point
observed.result: 72 to 77 °C
//
compound: CC(C)(C)OC(=O)NCCN(CCC12CC3CC(CC(C3)C1)C2)C(=O)NCCCc1ccncc1
parameter.measured: melting point
observed.result: 158 to 160.5 °C
//
compound: CCCCCN(CCC12CC3CC(CC(C3)C1)C2)C(=O)NCCCc1ccccn1
parameter.measured: melting point
observed.result: 84.4 to 85.7 °C
//
compound: CCCN(CCCC12CC3CC(CC(C3)C1)C2)C(=O)NCc1ccncc1
parameter.measured: melting point
observed.result: 96 to 98 °C

Value of melting point reported for the compound `CC(C)(C)OC(=O)NCCN(CCC12CC3CC(CC(C3)C1)C2)C(=O)NCCCc1cc[n+](Cc2ccccc2)cc1.[Br-]` is 97 °C

Note to self: melting point recorded for `CC(C)CCN(CCC(C)C)C(=O)NCCCc1ccncc1.Cl` was 120.5 to 131.7 °C

melting point for `CCCCCN(CCC1CCCCC1)C(=O)NCc1ccncc1` is 64.7 to 65.8 °C

----------
List of inhibition at 10 µM values.
Tested on: normal human umbilical vein endotherial cells (HUVEC)
procedure.details: VEGF-induced HUVEC proliferation (in vitro angiogenesis inhibition test)
Type: cell-based
particulars: Homo sapiens, HUVEC, 72 h, 10 μM test compound, 10 ng/ml VEGF, three days after adding VEGF, WST-8 absorbance at 450 nm; read-out: Inhibitory rate (%) (cell growth inhibitory rate to the control)
Provide only the numeric value, understood in %.

Use the examples below as a reference point.
compound: CCCCCN(CCC12CC3CC(CC(C3)C1)C2)C(=O)CCCCc1ccncc1
output.unit: %
inhibition at 10 µM: 83.4

compound: CC(CNC(=O)N(CCN(C)C(=O)OC(C)(C)C)CCC12CC3CC(CC(C3)C1)C2)Cc1ccncc1 (stereo not drawn)
output.unit: %
inhibition at 10 µM: 83.2

compound: CCCCCN(CCC12CC3CC(CC(C3)C1)C2)C(=O)CCCCCc1ccncc1
output.unit: %
inhibition at 10 µM: 82.5

compound: CCCCCN(CCC12CC3CC(CC(C3)C1)C2)C(=O)NCCCc1ccncc1
output.unit: %
inhibition at 10 µM: 83.4

compound: CCCCCN(CCC12CC3CC(CC(C3)C1)C2)C(=O)CSCCc1ccncc1
output.unit: %
inhibition at 10 µM: 82.2

compound: CCCCCN(CCC12CC3CC(CC(C3)C1)C2)C(=O)NCC(C)Cc1ccncc1 (single isomer, unassigned; (-))
output.unit: %
inhibition at 10 µM: 83.1

Value of measured inhibition at 10 µM for the entry `CCCCCN(CCC12CC3CC(CC(C3)C1)C2)C(=O)NC/C=C\c1ccncc1` : 83.1

Value of inhibition at 10 µM reported for the compound `CN(CCN(CCC12CC3CC(CC(C3)C1)C2)C(=O)NCCCc1ccncc1)C(=O)OC(C)(C)C` is 79.2

Query CCCCCN(CCC1CCCCC1)C(=O)NCC(C)Cc1ccncc1 (stereo not drawn) yields inhibition at 10 µM of 81.6

Please fill in: inhibition at 10 µM reported for CCCCCN(CCC12CC3CC(CC(C3)C1)C2)C(=O)NC(C)CCc1ccncc1 (stereo not drawn) = 83.3

Per the record, `CCCCCN(CCC12CC3CC(CC(C3)C1)C2)C(=O)NC/C=C/c1ccncc1` has inhibition at 10 µM of 83.2

Form field inhibition at 10 µM, entry `CCCN(CCCC12CC3CC(CC(C3)C1)C2)C(=O)NCCCc1ccncc1` : 83.7

Memo: `CC=CCN(CCC12CC3CC(CC(C3)C1)C2)C(=O)NCCCc1ccncc1` , reported inhibition at 10 µM: 83.2

Just so you know, measured inhibition at 10 µM for `CCCCCN(CCC12CC3CC(CC(C3)C1)C2)C(=O)CCSCc1ccncc1` came out at 83.3

For `O=C(NCCCc1ccncc1)N(CCC(F)(F)F)CCC12CC3CC(CC(C3)C1)C2` the compound record lists inhibition at 10 µM as 82.1

Source: patent US7741346B2
